# Tested on: S. epidermidis 103
# method: Experiment 4: naphthol derivative substrates in API galleries, liquid medium
# Type: cell-based, Staphylococcus epidermidis
# Set-up: key: the mark 0 corresponds to a negative reaction; marks 1, 2, 3 and 4 indicate intermediate levels of coloration and therefore of enzyme activity; marks 1, 2, 3 and 4 indicate intermediate levels of coloration and therefore of enzyme activity; marks 1, 2, 3 and 4 indicate intermediate levels of coloration and therefore of enzyme activity; marks 1, 2, 3 and 4 indicate intermediate levels of coloration and therefore of enzyme activity; the mark 5 to a reaction of maximum intensity
# testParameters: 4 hours of incubation at 37° C.
Provide the reported intensity of coloration (enzyme activity mark) of each item.

Sample records with intensity of coloration (enzyme activity mark):
OC[C@H]1O[C@H](Oc2ccc3cc(Br)ccc3c2)[C@H](O)[C@@H](O)[C@H]1O [No 3, 6-bromo-2-naphthyl-α-D-galactopyranoside]	0
OC[C@H]1O[C@@H](Oc2ccc3cc(Br)ccc3c2)[C@H](O)[C@@H](O)[C@@H]1O [No 7, 6-bromo-2-naphtyl-β-D-glucopyranoside]	0

Need intensity of coloration (enzyme activity mark) for each of these compounds.
1. OC[C@H]1O[C@H](Oc2ccc3ccccc3c2)[C@H](O)[C@@H](O)[C@@H]1O [No 6, 2-naphthyl-α-D-glucopyranoside]
2. OC[C@H]1O[C@@H](Oc2ccc3ccccc3c2)[C@H](O)[C@@H](O)[C@H]1O [No 4, 2-naphthyl-β-D-galactopyranoside]
3. O=P(O)(O)Oc1ccc2ccccc2c1 [No 2, 2-naphthyl-phosphate]

1: 1; 2: 0; 3: 3

###

Kindly state intensity of coloration (enzyme activity mark) for each of the entries shown.
# Test system: S. haemolyticus 137
# method: Experiment 4: naphthol derivative substrates in API galleries, liquid medium
# Type: cell-based, Staphylococcus haemolyticus
# Design: key: the mark 0 corresponds to a negative reaction; marks 1, 2, 3 and 4 indicate intermediate levels of coloration and therefore of enzyme activity; marks 1, 2, 3 and 4 indicate intermediate levels of coloration and therefore of enzyme activity; marks 1, 2, 3 and 4 indicate intermediate levels of coloration and therefore of enzyme activity; marks 1, 2, 3 and 4 indicate intermediate levels of coloration and therefore of enzyme activity; the mark 5 to a reaction of maximum intensity
# testParameters: 4 hours of incubation at 37° C.
Numbers only.

Example entries and their recorded answers appear below.
OC[C@H]1O[C@@H](Oc2ccc3cc(Br)ccc3c2)[C@H](O)[C@@H](O)[C@@H]1O [No 7, 6-bromo-2-naphtyl-β-D-glucopyranoside]	0
OC[C@H]1O[C@@H](Oc2ccc3ccccc3c2)[C@H](O)[C@@H](O)[C@H]1O [No 4, 2-naphthyl-β-D-galactopyranoside]	0
OC[C@H]1O[C@H](Oc2ccc3ccccc3c2)[C@H](O)[C@@H](O)[C@@H]1O [No 6, 2-naphthyl-α-D-glucopyranoside]	2
OC[C@H]1O[C@H](Oc2ccc3cc(Br)ccc3c2)[C@H](O)[C@@H](O)[C@H]1O [No 3, 6-bromo-2-naphthyl-α-D-galactopyranoside]	0

Next compound, intensity of coloration (enzyme activity mark) to be filled in.
The compound identified as O=P(O)(O)Oc1ccc2ccccc2c1 [No 2, 2-naphthyl-phosphate] registered its intensity of coloration (enzyme activity mark) at 0

###

Would you kindly list intensity of coloration (enzyme activity mark) for each of these molecules?
# Test system: S. aureus 276
# method: Experiment 4: naphthol derivative substrates in API galleries, liquid medium
# Assay type: cell-based, Staphylococcus aureus
# Parameters: key: the mark 0 corresponds to a negative reaction; marks 1, 2, 3 and 4 indicate intermediate levels of coloration and therefore of enzyme activity; marks 1, 2, 3 and 4 indicate intermediate levels of coloration and therefore of enzyme activity; marks 1, 2, 3 and 4 indicate intermediate levels of coloration and therefore of enzyme activity; marks 1, 2, 3 and 4 indicate intermediate levels of coloration and therefore of enzyme activity; the mark 5 to a reaction of maximum intensity
# testParameters: S. aureus 276; 4 hours of incubation at 37° C.
Numbers only.

Hey, quick one: what's intensity of coloration (enzyme activity mark) for each of these?
1. O=P(O)(O)Oc1ccc2ccccc2c1 [No 2, 2-naphthyl-phosphate]
2. OC[C@H]1O[C@H](Oc2ccc3ccccc3c2)[C@H](O)[C@@H](O)[C@@H]1O [No 6, 2-naphthyl-α-D-glucopyranoside]
3. OC[C@H]1O[C@@H](Oc2ccc3ccccc3c2)[C@H](O)[C@@H](O)[C@H]1O [No 4, 2-naphthyl-β-D-galactopyranoside]
4. OC[C@H]1O[C@H](Oc2ccc3cc(Br)ccc3c2)[C@H](O)[C@@H](O)[C@H]1O [No 3, 6-bromo-2-naphthyl-α-D-galactopyranoside]

1: 2; 2: 5; 3: 0; 4: 0

Recorded intensity of coloration (enzyme activity mark) for OC[C@H]1O[C@@H](Oc2ccc3cc(Br)ccc3c2)[C@H](O)[C@@H](O)[C@@H]1O [No 7, 6-bromo-2-naphtyl-β-D-glucopyranoside] on S. aureus 276 was 0
